Target: T1, recombinant mouse MAdCAM-1 (mouse, UniProt Q61826 22-365, limits assumed)
T1 construct: also called mMAdCAM-1; mouse MAdCAM-Fc
T1 sequence (looked up): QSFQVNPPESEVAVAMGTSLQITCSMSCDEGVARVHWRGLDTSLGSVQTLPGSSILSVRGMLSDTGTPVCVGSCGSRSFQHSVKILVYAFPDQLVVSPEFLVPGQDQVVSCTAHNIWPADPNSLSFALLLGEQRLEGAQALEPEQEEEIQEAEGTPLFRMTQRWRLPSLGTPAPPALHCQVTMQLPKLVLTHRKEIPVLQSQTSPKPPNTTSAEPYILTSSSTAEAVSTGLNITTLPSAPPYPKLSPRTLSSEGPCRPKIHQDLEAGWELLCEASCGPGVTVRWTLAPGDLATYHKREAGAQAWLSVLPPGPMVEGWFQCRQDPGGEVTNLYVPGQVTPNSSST
Assay: Octet

Binder: MAdCAM Antibody Table 2 Clone 46 (antibody, human IgG1, V domains shown) VH: EVQLLESGGGLVQPGGSLRLSCAASGFSFSSYTMNWVRQAPGKGLEWVSFITSSSRTIYYADSVKGRFTISRDNSKNTLYLQMNSLRAEDTAVYYCARDRRGDYGDSWYFDLWGRGTLVTVSS VL: EIVMTQSPATLSVSPGERATLSCRASQSVRNYLAWYQQKPGQAPRLLIYGASTRATGIPARFSGSGSGTEFTLTISSLQSEDFAVYYCQQYGSSPLTFGGGTKVEIK
binding result: no binding
//
Binder: MAdCAM Antibody Table 2 Clone 17 (antibody, human IgG1, V domains shown) VH: QVQLVQSGAEVKKPGSSVKVSCKASGYTFTDYHIHWVRQAPGQGLEWMGGIVPRSGSTTYAQKFQGRVTITADESTSTAYMELSSLRSEDTAVYYCAKDESSGWYYFDYWGQGTLVTVSS VL: DIVMTQSPLSLPVTPGEPASISCRSSQSLLHSNGYNYLDWYLQKPGQSPQLLIYSAYNRASGVPDRFSGSGSGTDFTLKISRVEAEDVGVYYCMQALQTPLTFGQGTKVEIK
binding result: no binding
//
Binder: MAdCAM Antibody Table 2 Clone 22 (antibody, human IgG1, V domains shown) VH: EVQLLESGGGLVQPGGSLRLSCAASGFTFDDYAMHWVRQAPGKGLEWVSGISWNSGSIGYADSVKGRFTISRDNSKNTLYLQMNSLRAEDTAVYYCAKDIVAAGHYYYGMDVWGQGTTVTVSS VL: DIQMTQSPSSLSASVGDRVTITCQASQDISNYLNWYQQKPGKAPKLLIYDASNLETGVPSRFSGSGSGTDFTLTISSLQPEDFATYYCQQSYSTPLTFGGGTKVEIK
binding result: no binding
